Measured values drawn from ChEMBL document CHEMBL3632621 for this set.

# SYSTEM: Delta-type opioid receptor (Rattus norvegicus)
# Sequence (P33533 whole entry): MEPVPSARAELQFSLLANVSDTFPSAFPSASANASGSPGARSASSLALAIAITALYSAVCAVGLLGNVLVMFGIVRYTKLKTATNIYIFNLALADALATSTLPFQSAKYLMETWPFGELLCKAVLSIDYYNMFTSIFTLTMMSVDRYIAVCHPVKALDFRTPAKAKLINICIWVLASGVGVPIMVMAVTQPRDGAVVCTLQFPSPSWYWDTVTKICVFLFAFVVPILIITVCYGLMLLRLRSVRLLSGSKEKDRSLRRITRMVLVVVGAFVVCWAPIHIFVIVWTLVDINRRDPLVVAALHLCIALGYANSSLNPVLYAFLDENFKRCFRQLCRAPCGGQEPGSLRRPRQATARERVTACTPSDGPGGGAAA
# PROTOCOL SUMMARY: Displacement of [3H]-DPDPE from delta opioid receptor in rat brain membrane after 120 mins by scintillation counting
REPORTED METRIC: pKi
// field semantics: pKi = negative decimal log of concentration (mol/L)

# get_value(readout='pKi', item= "CN(C(=O)/C=C/c1ccoc1)[C@@H]1CC[C@@]2(O)[C@H]3Cc4ccc(O)c5c4[C@@]2(CCN3CC2CC2)[C@H]1O5" )
9.43

====

# SYSTEM: Kappa-type opioid receptor (Cavia porcellus, UniProt P41144)
# Sequence (P41144 whole entry): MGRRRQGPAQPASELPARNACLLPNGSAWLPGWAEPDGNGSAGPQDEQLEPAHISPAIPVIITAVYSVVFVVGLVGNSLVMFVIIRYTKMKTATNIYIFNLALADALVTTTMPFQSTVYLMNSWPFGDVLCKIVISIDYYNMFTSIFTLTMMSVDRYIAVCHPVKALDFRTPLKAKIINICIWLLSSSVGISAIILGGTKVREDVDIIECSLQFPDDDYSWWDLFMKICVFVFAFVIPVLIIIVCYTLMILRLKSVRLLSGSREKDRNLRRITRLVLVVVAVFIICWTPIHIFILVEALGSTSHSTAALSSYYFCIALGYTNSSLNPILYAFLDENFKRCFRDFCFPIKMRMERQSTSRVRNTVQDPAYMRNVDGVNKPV
REPORTED METRIC: pKi
Keep it numeric: pKi is minus log10 of the concentration in mol/L.

Value lookup for pKi; key = "COC(=O)N1CCN(C(=O)Cc2ccc(Cl)c(Cl)c2)[C@H](CN2CCCC2)C1"
9.44

====

# SYSTEM: Mu-type opioid receptor (Cavia porcellus, UniProt P97266)
# Sequence (P97266 whole entry): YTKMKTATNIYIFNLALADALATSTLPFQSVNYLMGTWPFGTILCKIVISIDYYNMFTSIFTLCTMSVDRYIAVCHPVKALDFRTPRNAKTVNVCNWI
# PROTOCOL SUMMARY: Displacement of [3H]-DAMGO from mu opioid receptor in guinea pig brain membrane after 120 mins by scintillation counting
# Format: cell membranes
REPORTED METRIC: pKi
Lab note — pKi values are minus log10 of concentrations in M.

These solved cases illustrate the format of a correct answer.
# MOLECULE, SYSTEM, pKi
rows = [
    ("COC(=O)N1CCN(C(=O)Cc2ccc(Cl)c(Cl)c2)[C@H]2[C@@H](N3CCCC3)CCC[C@@H]21 (stereo in doubt)", "Mu-type opioid receptor (Cavia porcellus, UniProt P97266)", 6.46),
    ("COC(=O)N1CCN(C(=O)Cc2ccc(Cl)c(Cl)c2)[C@H]2[C@H](N3CCCC3)CCC[C@H]21 (racemic)", "Mu-type opioid receptor (Cavia porcellus, UniProt P97266)", 6.95),
    ("COC(=O)N1CCN(C(=O)Cc2ccc(Cl)c(Cl)c2)[C@H]2[C@H](N3CCCC3)CCC[C@@H]21 (stereo in doubt)", "Mu-type opioid receptor (Cavia porcellus, UniProt P97266)", 6.51),
]

Which pKi reading was recorded for the molecule "COC(=O)N1CCN(C(=O)Cc2ccc(Cl)c(Cl)c2)[C@H]2[C@H](N3CCCC3)CCC[C@H]21" ?
6.26

Would you mind doing "COC(=O)N1CCN(C(=O)Cc2ccc(Cl)c(Cl)c2)[C@@H]2[C@@H](N3CCCC3)CCC[C@@H]21" as well?
7.37

Record: COC(=O)N1CCN(C(=O)Cc2ccc(Cl)c(Cl)c2)[C@@H]2[C@H](N3CCCC3)CCC[C@H]21 (stereo in doubt)
6.93
